- SYSTEM TESTED: P. falciparum apicoplast DNA polymerase (Pf-apPOL) (Plasmodium falciparum)
- RUN DESCRIPTION: Fluorescence-based high-throughput DNA polymerase assay (molecular beacon), primary screen and dose-response
- Format: biochemical
- CONDITION CONTEXT: DRC-2; 180'; concentration 5
% inhibition apPOL 180' values for the molecules below.

{"MOLECULE": "Cc1ccc(C)c(CSc2nc(C3CCCCC3)c(C#N)c(=O)[nH]2)c1", "% inhibition apPOL 180' / %": 10}
{"MOLECULE": "O=C1CCCC2=C1C(c1ccccn1)C1=C(CCCC1=O)O2", "% inhibition apPOL 180' / %": -74}
{"MOLECULE": "O=[N+]([O-])c1ccc(/C=C/c2ccc3ccccc3n2)o1", "% inhibition apPOL 180' / %": 39}
{"MOLECULE": "O=C(c1c[nH]c2ncccc12)N1CCCC1 [Molecule 63, O=C(c1c[nH]c2c1cccn2)N1CCCC1]", "% inhibition apPOL 180' / %": 3.46}
{"MOLECULE": "O=c1cc(CN2CCCCC2)c2cc3c(cc2o1)OCO3", "% inhibition apPOL 180' / %": -66}
{"MOLECULE": "O=C(CSc1nnc(-c2ccco2)[nH]1)c1ccc(Cl)cc1", "% inhibition apPOL 180' / %": -8}
{"MOLECULE": "Cc1ccc(-n2nnc(C(=O)O)c2-c2ccccn2)c(F)c1", "% inhibition apPOL 180' / %": -1.15}
{"MOLECULE": "CC1(C)CC(=O)C2=C(C1)OC1=C(C(=O)CC(C)(C)C1)C2c1ccc(O)cc1", "% inhibition apPOL 180' / %": -63}
{"MOLECULE": "Cc1cc(C)cc(-n2nc3c(c2NC(=O)c2ccco2)CSC3)c1", "% inhibition apPOL 180' / %": 13}
{"MOLECULE": "Cc1cccc(-c2nnc3ccc(NS(=O)(=O)c4ccc(C)c(C)c4)nn23)c1", "% inhibition apPOL 180' / %": 11}
{"MOLECULE": "O=C1c2ccccc2C(=O)N1Oc1ccc([N+](=O)[O-])c([N+](=O)[O-])c1", "% inhibition apPOL 180' / %": 5.62}
{"MOLECULE": "COc1cccc(Oc2c(C(F)(F)F)oc3cc(OC(=O)N(C)C)ccc3c2=O)c1", "% inhibition apPOL 180' / %": -58}
{"MOLECULE": "O=C1NCCCn2cc(S(=O)(=O)Nc3ccccc3)cc21", "% inhibition apPOL 180' / %": 3.52}
{"MOLECULE": "O=[N+]([O-])/C=C/c1ccc(-c2ccc(Br)cc2)o1", "% inhibition apPOL 180' / %": 21}
{"MOLECULE": "COc1ccc(NC(=O)Cn2ccc3c(=O)[nH]ccc32)cc1 [Molecule 13, COc1ccc(cc1)NC(=O)Cn1ccc2c1cc[nH]c2=O]", "% inhibition apPOL 180' / %": 7}
{"MOLECULE": "COc1ccc(-c2c(C(F)(F)F)nn3c(=O)cc(-c4cccc([N+](=O)[O-])c4)[nH]c23)cc1", "% inhibition apPOL 180' / %": 7.4}

###

- SYSTEM TESTED: P. falciparum apicoplast DNA polymerase (Pf-apPOL) (Plasmodium falciparum, UniProt Q8ILY1)
- Sequence (Q8ILY1 entry or part of it): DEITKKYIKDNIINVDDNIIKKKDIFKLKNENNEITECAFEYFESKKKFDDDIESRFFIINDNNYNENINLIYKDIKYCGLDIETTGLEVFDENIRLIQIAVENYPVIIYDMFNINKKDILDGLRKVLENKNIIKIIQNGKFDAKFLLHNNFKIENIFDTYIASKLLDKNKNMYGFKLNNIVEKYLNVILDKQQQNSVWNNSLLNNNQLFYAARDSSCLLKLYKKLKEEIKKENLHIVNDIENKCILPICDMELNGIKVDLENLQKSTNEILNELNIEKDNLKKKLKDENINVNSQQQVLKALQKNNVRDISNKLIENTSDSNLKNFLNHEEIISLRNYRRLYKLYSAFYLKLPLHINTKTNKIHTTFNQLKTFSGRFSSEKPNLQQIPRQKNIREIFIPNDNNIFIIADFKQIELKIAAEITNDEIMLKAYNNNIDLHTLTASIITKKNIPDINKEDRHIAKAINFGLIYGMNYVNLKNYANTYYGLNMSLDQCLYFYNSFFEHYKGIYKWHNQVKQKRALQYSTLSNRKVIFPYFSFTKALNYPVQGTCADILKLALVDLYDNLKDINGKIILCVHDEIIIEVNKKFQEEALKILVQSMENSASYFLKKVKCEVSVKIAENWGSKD
- RUN DESCRIPTION: Fluorescence-based high-throughput DNA polymerase assay (molecular beacon), primary screen and dose-response;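 for % inhibition ApPOL 90': test concentration in µM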
- Type: biochemical
- CONDITION CONTEXT: DRC-2, 90', concentration 10 (unit not given)
- Description: The HT assay employs a molecular beacon, a stem-loop DNA template with a Cy3 dye and the Black Hole Quencher on the 3′ and 5′ ends of the DNA, respectively. Pf-apPOL concentration is based on a calculated absorptivity of ε280 = 56750 M^−1 cm^−1. […] To identify apPOL inhibitors we utilised our previously developed high-throughput DNA polymerase assay. […] The assay accurately recapitulates the kinetic behaviour of apPOL, as measured through more conventional low-throughput gel-based assays. […]
% inhibition ApPOL 90' values for the compounds below.
MEASURED PARAMETER: % inhibition ApPOL 90' (%)

{"COMPOUND": "Cc1cc(C)c2c(O)nc(SCC(=O)c3ccc(O)c(O)c3)nc2n1", "UNITS SYMBOL": "%", "ENDPOINT RESULT": 63}
{"COMPOUND": "O=[N+]([O-])/C=C/c1ccc(-c2ccc(Br)cc2)o1", "UNITS SYMBOL": "%", "ENDPOINT RESULT": 48}
{"COMPOUND": "O=C(Cn1ccc2c(=O)[nH]ccc21)Nc1cccc(Cl)c1 [Molecule 23, O=C(Cn1ccc2c1cc[nH]c2=O)Nc1cccc(c1)Cl]", "UNITS SYMBOL": "%", "ENDPOINT RESULT": 63}
{"COMPOUND": "O=c1[nH]c2ccc(Br)cc2c(-c2ccccc2)c1C1=NNC(c2ccco2)C1 (stereo not shown)", "UNITS SYMBOL": "%", "ENDPOINT RESULT": 49}
{"COMPOUND": "O=C1N/C(=N/c2ccccc2Cl)S/C1=C/c1ccc([N+](=O)[O-])o1", "UNITS SYMBOL": "%", "ENDPOINT RESULT": 42}
{"COMPOUND": "CCOc1cccc2cc(C(=O)Nc3nnc(-c4ccno4)o3)oc12", "UNITS SYMBOL": "%", "ENDPOINT RESULT": 45}
{"COMPOUND": "OC(C#Cc1ccccc1)c1ccco1 (stereo not shown)", "UNITS SYMBOL": "%", "ENDPOINT RESULT": 62}
{"COMPOUND": "O=C(Cn1ccc2c(=O)[nH]ccc21)Nc1ccc(Cl)cc1 [Molecule 36, O=C(Cn1ccc2c1cc[nH]c2=O)Nc1ccc(cc1)Cl]", "UNITS SYMBOL": "%", "ENDPOINT RESULT": 57}
{"COMPOUND": "COc1cc(NC(=O)c2ccccc2)c(OC)cc1NC(=O)Cc1cccs1", "UNITS SYMBOL": "%", "ENDPOINT RESULT": 54}
{"COMPOUND": "Nc1c(S(=O)(=O)O)cc(Nc2ccccc2)c2c1C(=O)c1ccccc1C2=O", "UNITS SYMBOL": "%", "ENDPOINT RESULT": 39}

###

- SYSTEM TESTED: P. falciparum apicoplast DNA polymerase (Pf-apPOL) (Plasmodium falciparum, UniProt Q8ILY1)
- RUN DESCRIPTION: Fluorescence-based high-throughput DNA polymerase assay (molecular beacon), primary screen and dose-response
- Type: biochemical
- CONDITION CONTEXT: DRC-2; read at 5'; concentration 2.5

{"COMPOUND": "CC(=O)Nc1cc(C(=O)c2cccs2)nn(-c2ccc(Cl)cc2)c1=O", "SYSTEM TESTED": "P. falciparum apicoplast DNA polymerase (Pf-apPOL) (Plasmodium falciparum, UniProt Q8ILY1)", "% inhibition Apo pol 5' 2.5, %": 7}
{"COMPOUND": "O=C(c1ccccc1)N1CCc2c(nc3cc(-c4ccccc4)[nH]n3c2=O)C1", "SYSTEM TESTED": "P. falciparum apicoplast DNA polymerase (Pf-apPOL) (Plasmodium falciparum, UniProt Q8ILY1)", "% inhibition Apo pol 5' 2.5, %": 6.51}
{"COMPOUND": "COc1ccc(C2CC(c3ccc(Cl)cc3Cl)Nc3nc(N)nn32)cc1OC (stereo not drawn)", "SYSTEM TESTED": "P. falciparum apicoplast DNA polymerase (Pf-apPOL) (Plasmodium falciparum, UniProt Q8ILY1)", "% inhibition Apo pol 5' 2.5, %": 23}

###

- SYSTEM TESTED: UniProtKB Q8ILY1
- RUN DESCRIPTION: Fluorescence-based high-throughput DNA polymerase assay (molecular beacon), primary screen and dose-response
- Assay type: biochemical
- CONDITION CONTEXT: primary screen value, DNA Pol; 90 min, 10 µM
DNA Pol values for the molecules below.

{"STRUCTURE SMILES STRING": "Cc1ccc2c(C(=O)NCCc3cccnc3)cc(NC(=O)C(C)C)cc2n1", "DNA Pol": 22}
{"STRUCTURE SMILES STRING": "O=C(O)CCS(=O)(=O)c1ccc(-c2ccc(S(=O)(=O)CCC(=O)O)cc2)cc1", "DNA Pol": 40}
{"STRUCTURE SMILES STRING": "N#CC(=NNc1cc(C(F)(F)F)cc(C(F)(F)F)c1)C(=O)c1ccco1", "DNA Pol": 81}
{"STRUCTURE SMILES STRING": "CN(C)S(=O)(=O)Oc1ccc(-c2noc(-c3ccc(Oc4cc(Cl)cc(Cl)c4)o3)n2)cc1", "DNA Pol": 81}

###

- SYSTEM TESTED: bacteriophage T4 DNA polymerase (Enterobacteria phage T4, UniProt P04415)
- Construct: made in house
- Sequence (P04415 1-898): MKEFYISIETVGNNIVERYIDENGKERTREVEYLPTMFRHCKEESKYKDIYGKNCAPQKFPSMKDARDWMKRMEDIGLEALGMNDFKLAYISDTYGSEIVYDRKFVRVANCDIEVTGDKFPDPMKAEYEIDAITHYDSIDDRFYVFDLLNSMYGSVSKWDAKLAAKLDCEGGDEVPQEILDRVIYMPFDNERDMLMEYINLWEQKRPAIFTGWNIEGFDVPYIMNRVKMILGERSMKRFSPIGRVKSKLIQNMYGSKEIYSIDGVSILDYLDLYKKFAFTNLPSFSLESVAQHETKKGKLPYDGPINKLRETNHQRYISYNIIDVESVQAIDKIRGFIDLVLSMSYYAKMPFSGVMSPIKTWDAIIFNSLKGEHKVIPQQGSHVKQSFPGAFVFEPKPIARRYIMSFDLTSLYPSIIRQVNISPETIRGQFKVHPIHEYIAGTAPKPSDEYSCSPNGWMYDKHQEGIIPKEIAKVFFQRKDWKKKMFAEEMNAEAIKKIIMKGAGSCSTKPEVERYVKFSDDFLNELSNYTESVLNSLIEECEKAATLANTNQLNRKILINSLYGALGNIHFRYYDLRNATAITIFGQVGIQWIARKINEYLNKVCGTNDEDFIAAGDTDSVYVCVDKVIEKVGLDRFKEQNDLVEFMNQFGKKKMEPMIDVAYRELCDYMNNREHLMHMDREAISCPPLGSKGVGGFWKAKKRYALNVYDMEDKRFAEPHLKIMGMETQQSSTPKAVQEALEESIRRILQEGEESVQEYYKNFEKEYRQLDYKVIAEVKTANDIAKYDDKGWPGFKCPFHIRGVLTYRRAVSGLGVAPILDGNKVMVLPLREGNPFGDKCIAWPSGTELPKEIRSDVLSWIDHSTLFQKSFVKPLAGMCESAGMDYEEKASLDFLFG
- RUN DESCRIPTION: Counter-screen against bacteriophage T4 DNA polymerase
- Assay type: biochemical
- CONDITION CONTEXT: DRC-2; 180'; concentration 2.5
MEASURED PARAMETER: % inhibition T4 180' (%)

{"MOLECULE": "CC(=O)c1cc2c(N)c(/C(N)=N/C#N)sc2nc1C [KU0015866]", "MEASURED PARAMETER": "% inhibition T4 180'", "ENDPOINT RESULT": -20}
{"MOLECULE": "O=C(CSc1nnc(-c2ccco2)[nH]1)c1ccc(Cl)cc1 [KU0029065]", "MEASURED PARAMETER": "% inhibition T4 180'", "ENDPOINT RESULT": -13}
{"MOLECULE": "COc1ccc(-c2cc3nc4c(c(=O)n3[nH]2)CCN(C(=O)CCc2ccccc2)C4)cc1 [Molecule 17]", "MEASURED PARAMETER": "% inhibition T4 180'", "ENDPOINT RESULT": -13}
{"MOLECULE": "COc1cccc(C(=O)N2CCc3c(nc4cc(-c5ccccc5)[nH]n4c3=O)C2)c1OC [Molecule 22]", "MEASURED PARAMETER": "% inhibition T4 180'", "ENDPOINT RESULT": -11}
{"MOLECULE": "O=C(Cn1ccc2c(=O)[nH]ccc21)Nc1cc(F)ccc1F [Molecule 42, O=C(Cn1ccc2c1cc[nH]c2=O)Nc1cc(F)ccc1F]", "MEASURED PARAMETER": "% inhibition T4 180'", "ENDPOINT RESULT": -1.82}
{"MOLECULE": "CC(C)(C)OC(=O)COc1ccc2cc(-c3ccccc3)c(=O)oc2c1 [Molecule 81]", "MEASURED PARAMETER": "% inhibition T4 180'", "ENDPOINT RESULT": 13}
{"MOLECULE": "CCOC(=O)C1=C2c3cc(OC)c(OC)cc3CC(C)(C)N2C(=O)C1=O [KU0193659]", "MEASURED PARAMETER": "% inhibition T4 180'", "ENDPOINT RESULT": 9}
{"MOLECULE": "COc1ccc(-c2n[nH]cc2Oc2ccc(Cl)cc2)c(O)c1 [KU0029837]", "MEASURED PARAMETER": "% inhibition T4 180'", "ENDPOINT RESULT": -26}
{"MOLECULE": "O=C(O)CCS(=O)(=O)c1ccc(-c2ccc(S(=O)(=O)CCC(=O)O)cc2)cc1 [Molecule 32]", "MEASURED PARAMETER": "% inhibition T4 180'", "ENDPOINT RESULT": -25}
{"MOLECULE": "CC1(C)CC(=O)C2=C(C1)OC1=C(C(=O)CC(C)(C)C1)C2c1ccc(O)cc1 [KU0194226]", "MEASURED PARAMETER": "% inhibition T4 180'", "ENDPOINT RESULT": 18}
